- Test system: COLO 205 colon
- Assay protocol: NCI-60 one-dose screen, 48 h
- Conditions used: 10 µM
About 83,000 compounds went through this panel and 20% of them were active in at least one assay; those are over-represented in the sample as a whole. Activity calls are given as the source filed them. How the source made its calls: active means growth percent below 10; inactive means the rest.
Possible outcomes: active, inactive

[
  {
    "Compound": "Nc1nc(N=Nc2ccc(O)cc2)cc(=O)[nH]1",
    "Group label": "inactive"
  },
  {
    "Compound": "N=C(N)c1ccc(-c2ccc(-c3ccco3)o2)cc1",
    "Group label": "active"
  },
  {
    "Compound": "O=c1cc(-c2ccccc2)[nH]n1-c1nc2ccccc2[nH]1",
    "Group label": "inactive"
  },
  {
    "Compound": "Cc1ccc(C)c(C(O)(c2cc(C)ccc2C)C2(O)CCCCC2)c1",
    "Group label": "inactive"
  },
  {
    "Compound": "CCN(CC)CCOc1nc2cc(OC)c(OC)cc2c2c1-c1ccc(OC)cc1C2=O",
    "Group label": "inactive"
  },
  {
    "Compound": "COc1ccc2c(c1)O/C(=C\\c1ccc([N+](=O)[O-])s1)C2=O",
    "Group label": "active"
  },
  {
    "Compound": "CC(C)(Cl)CCC1=C(Cl)C(=O)c2ccccc2C1=O",
    "Group label": "inactive"
  },
  {
    "Compound": "COc1ccc2c(c1)N(CCO)C1=C(C(=O)OC1)C2c1ccc(OC)c(OC)c1 (configuration not stated)",
    "Group label": "inactive"
  },
  {
    "Compound": "Nc1ccc2c(c1)Cc1cc(N)c(Br)cc1-2",
    "Group label": "inactive"
  },
  {
    "Compound": "C#Cc1ccc(-n2c(/C=C/c3ccc(Cl)c(F)c3)nc3ncccc3c2=O)cc1",
    "Group label": "active"
  },
  {
    "Compound": "CCN(CC)CCOc1nc2ccccc2c2c1-c1ccc(OC)cc1C2=O",
    "Group label": "active"
  },
  {
    "Compound": "O=C(Nc1nc(-c2ccccc2Cl)cs1)c1cc(-c2ccc(Cl)cc2)nc2ccc(Cl)cc12",
    "Group label": "inactive"
  },
  {
    "Compound": "CCN(CC)Cc1cc(Nc2ccnc3cc(Cl)ccc23)ccc1OC",
    "Group label": "inactive"
  },
  {
    "Compound": "CCOCCOCCOCCOCCOCCOCCOCCOCCOCCO (tested in a mixture with another compound)",
    "Group label": "active"
  },
  {
    "Compound": "COc1ccc(-c2nc(-c3nc4cc(Cl)c(Cl)cc4[nH]3)c3ccccn23)cc1",
    "Group label": "inactive"
  },
  {
    "Compound": "Fc1ccc(-c2nnc(-c3c(-c4ccc(F)cc4)nc4ccccn34)o2)cc1",
    "Group label": "inactive"
  },
  {
    "Compound": "COc1cc(Nc2ncnc(Nc3ccc4c(n3)NC(=O)C(C)(C)O4)n2)cc(OC)c1OC",
    "Group label": "active"
  },
  {
    "Compound": "Cc1ccc(Nc2cc(C)nc(NCCCNc3ccnc4cc(Cl)ccc34)n2)cc1",
    "Group label": "active"
  },
  {
    "Compound": "COc1cc(Cc2cc(-c3ccc(Cl)cc3)n[nH]c2=O)ccc1O",
    "Group label": "inactive"
  },
  {
    "Compound": "COc1ccc(-c2nc(-c3nc4ccc(Cl)cc4[nH]3)c3ccccn23)cc1",
    "Group label": "inactive"
  },
  {
    "Compound": "CC(C)(C)NC/C(=C\\c1ccccc1)C(=O)c1ccccc1",
    "Group label": "active"
  },
  {
    "Compound": "COc1cc(NC(=O)CCSc2nc3ccc(C)cc3c(=O)n2Cc2ccccc2)cc(OC)c1OC",
    "Group label": "inactive"
  }
]

###

- Tested on: SK-MEL-28 melanoma
- Assay protocol: NCI-60 one-dose screen, 48 h (100 = growth as untreated, 0 = no growth, -100 = all killed)
- Conditions used: 10 µM
About 83,000 compounds went through this panel and 20% of them were active in at least one assay; those are over-represented in the sample as a whole.
Quick reference for growth among some molecules
Measured endpoint: growth (%)

[
  {
    "Molecular string": "COc1ccc(-c2cc(-c3ccc(N(C)C)cc3)c(C#N)c(N3CCCC3)n2)cc1",
    "Experimental target": "SK-MEL-28 melanoma",
    "Unit of measure": "%",
    "Value measured": 93.4
  },
  {
    "Molecular string": "Cc1cc(N(CCCNc2ccnc3cc(Cl)ccc23)Cc2cccs2)nc(Cl)n1",
    "Experimental target": "SK-MEL-28 melanoma",
    "Unit of measure": "%",
    "Value measured": 81.5
  },
  {
    "Molecular string": "NC(=O)c1ccc(-c2cccc3c(=O)nc(N4CCOCC4)oc23)cc1",
    "Experimental target": "SK-MEL-28 melanoma",
    "Unit of measure": "%",
    "Value measured": 103
  },
  {
    "Molecular string": "O=C(/C(=C/c1ccccc1)CN1CCCCC1)c1ccccc1",
    "Experimental target": "SK-MEL-28 melanoma",
    "Unit of measure": "%",
    "Value measured": -63
  },
  {
    "Molecular string": "O=C(N/N=C/c1cc2ccccc2c2ccccc12)c1cc(O)c(O)c(O)c1",
    "Experimental target": "SK-MEL-28 melanoma",
    "Unit of measure": "%",
    "Value measured": 55.6
  },
  {
    "Molecular string": "O=C1C(=O)c2ccccc2C(O)=C1CCCc1ccc(C2CCCCCC2)cc1",
    "Experimental target": "SK-MEL-28 melanoma",
    "Unit of measure": "%",
    "Value measured": 49.7
  },
  {
    "Molecular string": "Cc1cc(Cl)nc(N(CCCNc2ccnc3cc(Cl)ccc23)Cc2cccs2)n1",
    "Experimental target": "SK-MEL-28 melanoma",
    "Unit of measure": "%",
    "Value measured": 16.1
  },
  {
    "Molecular string": "COc1ccc2c(c1)C(=O)c1c-2c(OCCN(C)C)nc2ccccc12",
    "Experimental target": "SK-MEL-28 melanoma",
    "Unit of measure": "%",
    "Value measured": 64.9
  },
  {
    "Molecular string": "COc1ccc(OC)c(NC(=O)c2sc3nc4c(cc3c2N)C(=O)CCC4)c1",
    "Experimental target": "SK-MEL-28 melanoma",
    "Unit of measure": "%",
    "Value measured": 83.7
  },
  {
    "Molecular string": "COc1ccc(-c2nn(-c3cccc(NC(=O)Nc4ccc(Cl)c(C(F)(F)F)c4)c3)cc2-c2ccncc2)cc1Cl",
    "Experimental target": "SK-MEL-28 melanoma",
    "Unit of measure": "%",
    "Value measured": 23
  }
]
